Tested on: dCK-C3S-S74E
Sequence (P27707 whole entry S74E, form open): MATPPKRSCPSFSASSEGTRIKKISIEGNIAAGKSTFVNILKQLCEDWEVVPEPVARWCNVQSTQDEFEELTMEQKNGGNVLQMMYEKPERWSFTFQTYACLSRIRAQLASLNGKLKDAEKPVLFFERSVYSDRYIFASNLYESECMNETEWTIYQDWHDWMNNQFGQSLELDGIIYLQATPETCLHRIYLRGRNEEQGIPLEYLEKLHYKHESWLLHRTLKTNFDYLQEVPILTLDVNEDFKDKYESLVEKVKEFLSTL
method-description: Enzymatic assay (PK/LDH coupled), dC phosphorylation by dCK in the presence of UTP
Assay type: biochemical, human
assay-context: presence of UTP
endpoint-label: ENZYMATIC ASSAY (Activation/Inhibition)

Some solved entries appear below for comparison.
                            compound_smiles  result
0  CCCN(c1nc(-c2nc(N)cc(N)n2)cs1)c1cc(-c2ccc(S(=O)(=O)N3CCN(C)CC3)cc2C(F)(F)F)ccc1C       I
1  CCCN(c1nc(-c2nc(N)cc(N)n2)cs1)c1cc(-c2ccc(S(=O)(=O)N3CCOCC3)cc2)ccc1C       I
2  Cc1ccc(-c2ccc(CN3CCN(C)CC3)cc2)cc1Nc1nc(-c2nccc(N)n2)cs1     A/I
3  CCCN(c1nc(-c2nc(N)cc(N)n2)cs1)c1cc(-c2ccc(CCCN3CCN(C)CC3)cc2)ccc1C       I
4  CCCN(c1nc(-c2nccc(N)n2)cs1)c1cc(-c2ccc(OCCN3CCN(C)CC3)cc2)ccc1C       I

In: Form entry - test system: dCK-C3S-S74E; read-out: ENZYMATIC ASSAY (Activation/Inhibition); compound: Cc1ccc(NC(=O)c2ccc(CN3CCN(C)CC3)cc2)cc1Nc1nc(-c2nccc(N)n2)cs1
Out: A/I

In: Form entry - test system: dCK-C3S-S74E; read-out: ENZYMATIC ASSAY (Activation/Inhibition); compound: Cc1ccc(NC(=O)c2ccc(CN3CCN(C)CC3)cc2)cc1Nc1nc(-c2ncc(F)c(N)n2)cs1
Out: A/I

In: Form entry - test system: dCK-C3S-S74E; read-out: ENZYMATIC ASSAY (Activation/Inhibition); compound: Cc1ccc(C#Cc2ccc(CN3CCN(C)CC3)cc2)cc1Nc1nc(-c2nccc(N)n2)cs1
Out: A/I
